Every entry's value here was drawn from ChEMBL document CHEMBL4261540.

Biological target: Fibroblast growth factor receptor 1 (Homo sapiens)
Sequence (P11362 whole entry): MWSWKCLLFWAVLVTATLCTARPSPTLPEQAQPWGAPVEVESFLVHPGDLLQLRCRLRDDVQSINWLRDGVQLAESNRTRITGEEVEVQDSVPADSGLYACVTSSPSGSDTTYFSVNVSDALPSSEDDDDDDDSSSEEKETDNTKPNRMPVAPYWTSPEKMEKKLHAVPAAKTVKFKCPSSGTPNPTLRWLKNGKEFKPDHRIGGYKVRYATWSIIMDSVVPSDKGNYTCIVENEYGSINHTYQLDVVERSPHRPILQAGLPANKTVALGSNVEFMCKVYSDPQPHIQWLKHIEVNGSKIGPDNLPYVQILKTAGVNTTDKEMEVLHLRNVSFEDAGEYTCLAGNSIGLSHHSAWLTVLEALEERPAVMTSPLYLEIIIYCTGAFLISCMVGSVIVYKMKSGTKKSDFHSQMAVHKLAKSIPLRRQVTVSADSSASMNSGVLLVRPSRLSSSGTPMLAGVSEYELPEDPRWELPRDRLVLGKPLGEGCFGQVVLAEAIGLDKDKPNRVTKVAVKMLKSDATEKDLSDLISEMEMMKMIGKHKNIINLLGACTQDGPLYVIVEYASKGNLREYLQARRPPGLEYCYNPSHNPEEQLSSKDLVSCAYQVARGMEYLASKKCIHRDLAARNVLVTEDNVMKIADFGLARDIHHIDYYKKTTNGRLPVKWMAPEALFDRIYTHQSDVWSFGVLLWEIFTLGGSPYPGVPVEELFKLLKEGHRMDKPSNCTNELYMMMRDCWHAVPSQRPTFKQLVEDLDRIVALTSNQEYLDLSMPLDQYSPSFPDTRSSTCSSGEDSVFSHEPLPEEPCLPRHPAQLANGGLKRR
readout.label: IC50 (µM)

A. CC(C)Oc1cc(N2CCC(N3CCN(C)CC3)CC2)ccc1Nc1ncc(Cl)c(Nc2ccccc2S(=O)(=O)C(C)C)n1
B. C=CC(=O)Nc1cccc(C)c1Nc1ncc2cc(-c3c(Cl)c(OC)cc(OC)c3Cl)ccc2n1
Which entry has a larger number for IC50, A or B ? Lab log: write the label of the selected item as the result.
A

----------
Target: UniProtKB P22455
Sequence (P22455 whole entry): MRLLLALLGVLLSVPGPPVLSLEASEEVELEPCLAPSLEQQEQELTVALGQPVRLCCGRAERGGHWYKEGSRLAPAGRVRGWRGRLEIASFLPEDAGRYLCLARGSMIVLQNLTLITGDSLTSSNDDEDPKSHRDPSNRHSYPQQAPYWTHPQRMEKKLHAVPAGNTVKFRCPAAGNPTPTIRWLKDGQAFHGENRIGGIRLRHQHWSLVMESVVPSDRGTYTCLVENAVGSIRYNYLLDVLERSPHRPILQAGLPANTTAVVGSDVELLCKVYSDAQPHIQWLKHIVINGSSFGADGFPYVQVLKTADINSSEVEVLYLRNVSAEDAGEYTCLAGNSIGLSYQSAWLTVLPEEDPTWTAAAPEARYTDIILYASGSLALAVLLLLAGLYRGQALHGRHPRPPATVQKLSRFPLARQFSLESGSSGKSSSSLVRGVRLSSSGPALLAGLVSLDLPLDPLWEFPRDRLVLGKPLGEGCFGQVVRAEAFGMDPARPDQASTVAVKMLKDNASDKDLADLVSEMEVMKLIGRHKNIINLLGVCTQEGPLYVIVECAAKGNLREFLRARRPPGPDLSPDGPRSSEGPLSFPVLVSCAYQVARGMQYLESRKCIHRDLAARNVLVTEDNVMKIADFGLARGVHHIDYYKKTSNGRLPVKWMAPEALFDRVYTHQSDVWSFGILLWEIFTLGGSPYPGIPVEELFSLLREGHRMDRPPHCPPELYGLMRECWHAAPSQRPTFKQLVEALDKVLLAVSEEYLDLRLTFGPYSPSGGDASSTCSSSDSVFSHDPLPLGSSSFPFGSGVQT
readout.label: pIC50
// scale note: pIC50 = -log10(conc_M); give the bare number

Entry `CC(C)Oc1cc(N2CCC(N3CCN(C)CC3)CC2)ccc1Nc1ncc(Cl)c(Nc2ccccc2S(=O)(=O)C(C)C)n1` has what pIC50?
7.54
